FYI, the data here is from patent US12180194B2.

The following compounds are listed with their measured Genotoxicity test, With S9 rat liver extract, Rtkn, 25 values.
Test system: Rtkn-GFP
Test: ToxTracker genotoxicity assay, Rtkn-GFP reporter induction
Conditions: GFP induction vs vehicle at 25% cytotoxicity; 3 h exposure with S9, 24 h recovery
Reported endpoint: Genotoxicity test, With S9 rat liver extract, Rtkn, 25 (fold)

[[record]]
compound = "CCC(CN1CC1C)OC(=O)NCCCCCCn1c(=O)n(CCCCCCNC(=O)OC(CC)CN2CC2C)c(=O)n(CCCCCCNC(=O)OC(CC)CN2CC2C)c1=O (stereo not drawn) [Ex. 7]"
unit_tag = "fold"
reported = 1.3

[[record]]
compound = "CCCCCCCCCC(=O)OCC(CN1CC1C)OC(=O)NCCCCCCn1c(=O)n(CCCCCCNC(=O)OC(COC(=O)CCCCCCCCC)CN2CC2C)c(=O)n(CCCCCCNC(=O)OC(COC(=O)CCCCCCCCC)CN2CC2C)c1=O (stereo not drawn) [Ex. 24]"
unit_tag = "fold"
reported = 1.1

[[record]]
compound = "CCCCOCC(CN1CC1C)OC(=O)Nc1ccc(C)c(NC(=O)OC(COCCCC)CN2CC2C)c1 (stereo not drawn) [Comp. Ex. 11, reference compound]"
unit_tag = "fold"
reported = 2.1

